Data origin, for the record: patent US9770026B2

I'd be grateful if you could share measured pest or weed control at 600 µg/mL for these entries.
System: carmine spider mite
Assay: bioactivity test against carmine spider mite, airbrush spray
Format: in vivo
Conditions: Tetranychus cinnabarinus, 72 h, 600 mg/L; contrastive test; read-out: Insecticidal activity against carmine spider mite (% )

The following compounds have reported results that may help.
[
  {
    "Compound": "Cc1ncnc(NCCc2ccc(Oc3ccc(C(F)(F)F)cc3)cc2)c1Cl",
    "System Under Test": "carmine spider mite",
    "pest or weed control at 600 µg/mL": "100%"
  },
  {
    "Compound": "CCOC(=O)c1ccc(Oc2ccc(CCNc3cc(Cl)nc(C)n3)cc2)nc1 [CK76, reference compound]",
    "System Under Test": "carmine spider mite",
    "pest or weed control at 600 µg/mL": "41%"
  },
  {
    "Compound": "FC(F)(F)c1cnc(Oc2ccc(CCNc3cc(Cl)ncn3)cc2)c(Cl)c1 [CK70, reference compound]",
    "System Under Test": "carmine spider mite",
    "pest or weed control at 600 µg/mL": "13%"
  },
  {
    "Compound": "Cc1ncnc(NC(C)c2ccc(Oc3ccc(C(F)(F)F)cc3)cc2)c1Cl (centres unmarked) [CK46, reference compound]",
    "System Under Test": "carmine spider mite",
    "pest or weed control at 600 µg/mL": "100%"
  },
  {
    "Compound": "Cc1nc(Cl)cc(NCCc2ccc(Oc3ccc(C#N)cn3)cc2)n1 [CK84, reference compound]",
    "System Under Test": "carmine spider mite",
    "pest or weed control at 600 µg/mL": "100%"
  },
  {
    "Compound": "CCc1ncnc(NC(=O)Cc2ccc(Oc3ccc(C(F)(F)F)cn3)cc2)c1Cl [CK55, reference compound]",
    "System Under Test": "carmine spider mite",
    "pest or weed control at 600 µg/mL": "0%"
  },
  {
    "Compound": "Cc1nc(Cl)cc(NCCc2ccc(Oc3ccc(C(F)(F)F)cn3)cc2)n1 [CK67, reference compound]",
    "System Under Test": "carmine spider mite",
    "pest or weed control at 600 µg/mL": "61%"
  }
]

# next compound below
input: Which measured pest or weed control at 600 µg/mL belongs to N#Cc1ccc(Oc2ccc(CCNc3nc(Cl)ncc3Cl)cc2)nc1 [CK26, reference compound] , tested on carmine spider mite?
output: 0%
